- System: S. aureus ATCC 25923
readoutKind: MIC

compound: Cl.Cl.N=C(N)c1ccc2[nH]c(-c3ccc(OCc4cn(CSc5ccccc5)nn4)cc3)nc2c1
assayValue: 32 µg/mL
--
compound: N=C(N)c1ccc2[nH]c(-c3ccc(OCc4cn(-c5ccccc5)nn4)cc3)nc2c1
assayValue: 32 µg/mL
--
compound: COc1ccc(-n2cc(COc3ccc(-c4nc5cc(C(=N)NC(C)C)ccc5[nH]4)cc3)nn2)cc1.Cl.Cl
assayValue: 128 µg/mL
--
compound: Cl.Cl.N=C(N)c1ccc2[nH]c(-c3ccc(OCc4cn(-c5ccccc5Cl)nn4)cc3)nc2c1
assayValue: 64 µg/mL

* * *

- System: polyG-polyC (polyC-polyG) (RNA, polymer) G/C
- testDescription: UV-Vis titration, Scatchard
- measurementParameters: PBS, I = 0.05 M (Table 1 says I = 0.015 M), cations not specified, I = 0.015 M (Methods: 0.05 M), pH 7, per base
readoutKind: log Ks

compound: Cl.Cl.Clc1ccccc1-n1cc(COc2ccc(-c3nc4cc(C5=NCCN5)ccc4[nH]3)cc2)nn1 [Compound 9c]
readoutKind: log Ks
assayValue: 6.43
//
compound: COc1ccc(-n2cc(COc3ccc(-c4nc5ccc(C(=N)N)cc5[nH]4)cc3)nn2)cc1
readoutKind: log Ks
assayValue: 6.27
//
compound: CC(C)NC(=N)c1ccc2nc(-c3ccc(OCc4cn(CSc5ccccc5)nn4)cc3)[nH]c2c1
readoutKind: log Ks
assayValue: 7.20
//
compound: N=C(N)c1ccc2[nH]c(-c3ccc(OCc4cn(Cc5ccccc5)nn4)cc3)nc2c1 [Compound 7d]
readoutKind: log Ks
assayValue: 6.56

* * *

- Tested on: bloodstream form T. brucei (strain 221)
- testDescription: Anti-trypanosomal screening, resazurin
- Format: cell-based
- measurementParameters: Trypanosoma brucei, mean of triplicate ± SEM
readoutKind: log10(IC50) (log10 of the value in µM)

compound: c1ccc(Cn2cc(COc3ccc(-c4nc5cc(C6=NCCN6)ccc5[nH]4)cc3)nn2)cc1
log10(IC50): 1.03
//
compound: COc1ccc(-n2cc(COc3ccc(-c4nc5cc(C(=N)N)ccc5[nH]4)cc3)nn2)cc1.Cl.Cl
log10(IC50): 0.18
//
compound: Cl.Cl.c1ccc(SCn2cc(COc3ccc(-c4nc5cc(C6=NCCN6)ccc5[nH]4)cc3)nn2)cc1
log10(IC50): 0.99
//
compound: CC(C)NC(=N)c1ccc2[nH]c(-c3ccc(OCc4cn(CSc5ccccc5)nn4)cc3)nc2c1.Cl.Cl
log10(IC50): 1.13
//
compound: COc1ccc(-n2cc(COc3ccc(-c4nc5cc(C(=N)NC(C)C)ccc5[nH]4)cc3)nn2)cc1.Cl.Cl
log10(IC50): 0.04

* * *

- Test system: calf thymus ctDNA
- testDescription: UV–Vis titration with ctDNA (Scatchard)
- Type: binding
- measurementParameters: UV–Vis titration, PBS, pH 7; calculated by Scatchard equation

compound: c1ccc(Cn2cc(COc3ccc(-c4nc5cc(C6=NCCN6)ccc5[nH]4)cc3)nn2)cc1
targetDesc: calf thymus ctDNA
Hypochromic effect H/%, ctDNA, %: 24.6

compound: Cl.Cl.c1ccc(SCn2cc(COc3ccc(-c4nc5cc(C6=NCCN6)ccc5[nH]4)cc3)nn2)cc1
targetDesc: calf thymus ctDNA
Hypochromic effect H/%, ctDNA, %: 41.1

compound: CC(C)NC(=N)c1ccc2[nH]c(-c3ccc(OCc4cn(Cc5ccccc5)nn4)cc3)nc2c1
targetDesc: calf thymus ctDNA
Hypochromic effect H/%, ctDNA, %: 41.2

compound: N=C(N)c1ccc2[nH]c(-c3ccc(OCc4cn(Cc5ccccc5)nn4)cc3)nc2c1
targetDesc: calf thymus ctDNA
Hypochromic effect H/%, ctDNA, %: 40.4

compound: Cl.Cl.N=C(N)c1ccc2[nH]c(-c3ccc(OCc4cn(-c5ccccc5Cl)nn4)cc3)nc2c1
targetDesc: calf thymus ctDNA
Hypochromic effect H/%, ctDNA, %: 36.3

compound: CC(C)NC(=N)c1ccc2[nH]c(-c3ccc(OCc4cn(-c5ccccc5)nn4)cc3)nc2c1
targetDesc: calf thymus ctDNA
Hypochromic effect H/%, ctDNA, %: 41.0

compound: CC(C)NC(=N)c1ccc2[nH]c(-c3ccc(OCc4cn(CSc5ccccc5)nn4)cc3)nc2c1.Cl.Cl
targetDesc: calf thymus ctDNA
Hypochromic effect H/%, ctDNA, %: 44.2
